targetOrSystem: Estrogen receptor (Homo sapiens) (UniProt P03372)
Sequence (P03372 whole entry, looked up): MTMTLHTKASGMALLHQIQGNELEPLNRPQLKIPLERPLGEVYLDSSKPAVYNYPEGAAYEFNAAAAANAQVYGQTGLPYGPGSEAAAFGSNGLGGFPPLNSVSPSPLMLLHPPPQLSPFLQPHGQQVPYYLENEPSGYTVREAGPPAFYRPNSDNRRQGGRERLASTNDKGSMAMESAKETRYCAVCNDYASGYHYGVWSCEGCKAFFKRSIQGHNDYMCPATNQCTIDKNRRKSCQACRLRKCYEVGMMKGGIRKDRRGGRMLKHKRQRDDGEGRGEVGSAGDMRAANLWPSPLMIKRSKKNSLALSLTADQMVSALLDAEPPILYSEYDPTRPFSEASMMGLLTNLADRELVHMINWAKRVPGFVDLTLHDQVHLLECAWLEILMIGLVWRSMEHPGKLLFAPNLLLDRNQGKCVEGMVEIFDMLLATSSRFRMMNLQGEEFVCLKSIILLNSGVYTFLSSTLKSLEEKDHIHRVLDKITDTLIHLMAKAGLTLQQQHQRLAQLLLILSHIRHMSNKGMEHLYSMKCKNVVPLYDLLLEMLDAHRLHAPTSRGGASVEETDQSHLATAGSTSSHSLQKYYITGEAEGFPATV
methodSummary: qHTS assay for small molecule agonists of estrogen receptor alpha signaling (AID 588514); also: nearly all actives have a fitted effect of over 70% in size; also: potency is read from the fitted curve at half-maximal effect
conditions: ER-alpha-UAS-bla HEK293, beta-lactamase ratio, 18 h; series mostly up to 76.8 µM
Results filed as inconclusive are left out. Active and inactive are the calls of the source. Calls follow the shape of the full dose curve.
reportedMetric: Potency

Sample answers from the record:
CC(=O)OCc1ccco1 :: inactive
[O-]/[N+](=N\O)c1ccccc1 :: inactive
Cc1cc(C)cc(O)c1 :: inactive
CC(C)(O)CCC(C)(C)O :: inactive
Cc1cc([N+](=O)[O-])ccc1N :: inactive

Please look up its Potency: C=CCCC
inactive

Please look up its Potency: Cc1ccc2ncccc2c1
inactive

Please look up its Potency: Oc1cccc(Nc2ccccc2)c1
25.1 µM (active)

Please look up its Potency: CCOc1ccc(NC(C)=O)cc1N
inactive

Please look up its Potency: CC=O
inactive

Please look up its Potency: ClCCl
inactive

Please look up its Potency: c1ccsc1
inactive

Please look up its Potency: BrC(Br)C(Br)Br
inactive

Please look up its Potency: Cc1ccco1
inactive

Please look up its Potency: O=P(O)(OCc1ccccc1)OCc1ccccc1
inactive

Please look up its Potency: CCOC(=O)OCC
inactive

Please look up its Potency: CC(=O)Nc1ccc(N)cc1
inactive

Please look up its Potency: O=C(O)c1ccc(Cl)c(Cl)c1
inactive

Please look up its Potency: FB(F)F
inactive

Please look up its Potency: CC(C)(C)c1ccc(OCC2CO2)cc1 (configuration not stated)
inactive

Please look up its Potency: C=C(C)C1CC=C(C)C(OC(C)=O)C1 (configuration not stated)
inactive

Please look up its Potency: CC(=O)OC(C)C
inactive

----------
targetOrSystem: Nuclear receptor ROR-gamma (Homo sapiens)
methodSummary: qHTS assay for small molecule antagonists of the retinoid-related orphan receptor gamma (ROR-gamma) signaling pathway (AID 651802);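 also: CHO cells with doxycycline-induced ROR-gamma expression; luciferase reporter luminescence driven by ROR response element; % is scaled to controls: 0 for no effect and ±100 for the full control effect; nearly all actives have a fitted effect of over 60% in size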
conditions: ROR-gamma antagonist cell reporter assay; series mostly up to 92.2 µM
Inconclusive results are not listed. Calls of active or inactive are those of the source. Calls come from the whole dose curve; as a rule, active = well fitted inhibition curve with a large enough effect; inconclusive = small, poorly fitted or top-dose-only effect; inactive = no such curve, though single readings can be large or run the other way.
Mark one answer only. Choices: class 1 (active), class 0 (inactive)

CN(C)CCCNCCCN :: class 0
CCNS(=O)(=O)c1ccc(C)cc1 :: class 0
O=C(O)c1ccc(Cl)c(Cl)c1 :: class 0

Call for entry C=CCCCC :
class 0

Call for entry CC(C)N=C=NC(C)C :
class 0

Call for entry Clc1ccc(Cl)c(Cl)c1Cl :
class 0

Call for entry OC/C(Br)=C(\Br)CO :
class 0

Call for entry CC(O)CC(C)O (configuration not stated) :
class 0

Call for entry Nc1ccccc1[N+](=O)[O-] :
class 0

Call for entry CC1CCC2CC1C2(C)C (configuration not stated) :
class 0

Call for entry Cc1cccc(C(=O)O)c1[N+](=O)[O-] :
class 0

Call for entry NC(=O)c1ccccc1[N+](=O)[O-] :
class 0

Call for entry CC(=O)Nc1ccc(N)cc1 :
class 0

----------
targetOrSystem: Glucocorticoid receptor (Homo sapiens) (UniProt P04150)
Sequence (P04150 whole entry, looked up): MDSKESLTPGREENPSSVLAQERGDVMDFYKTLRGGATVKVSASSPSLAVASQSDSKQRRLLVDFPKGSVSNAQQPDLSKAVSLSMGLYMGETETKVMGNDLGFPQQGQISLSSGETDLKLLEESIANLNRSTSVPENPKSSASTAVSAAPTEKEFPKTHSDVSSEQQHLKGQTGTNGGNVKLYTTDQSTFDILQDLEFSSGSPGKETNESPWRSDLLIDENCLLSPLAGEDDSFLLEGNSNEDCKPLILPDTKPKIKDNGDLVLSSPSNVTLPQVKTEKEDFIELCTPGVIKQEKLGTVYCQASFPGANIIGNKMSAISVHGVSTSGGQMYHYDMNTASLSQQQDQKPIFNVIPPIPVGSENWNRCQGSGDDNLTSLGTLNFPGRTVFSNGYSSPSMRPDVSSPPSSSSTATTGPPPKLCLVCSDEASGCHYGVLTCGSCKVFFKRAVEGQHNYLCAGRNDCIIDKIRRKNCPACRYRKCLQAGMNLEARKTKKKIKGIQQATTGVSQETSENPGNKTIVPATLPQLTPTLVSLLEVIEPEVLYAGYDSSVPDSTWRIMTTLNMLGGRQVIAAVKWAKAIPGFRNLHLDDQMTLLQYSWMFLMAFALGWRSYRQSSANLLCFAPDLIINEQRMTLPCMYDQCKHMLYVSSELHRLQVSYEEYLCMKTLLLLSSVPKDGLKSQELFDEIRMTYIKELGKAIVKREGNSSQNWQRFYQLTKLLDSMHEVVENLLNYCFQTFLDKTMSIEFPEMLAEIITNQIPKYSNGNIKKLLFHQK
methodSummary: qHTS assay for small molecule agonists of glucocorticoid receptor signaling (AID 588532);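 also: 100% = dexamethasone at 0.1 µM and 0% = DMSO only wells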
conditions: HeLa MMTV-bla, beta-lactamase ratio, agonist, 18 h; hits give high values; percent of dexamethasone control, DMSO zero
Records with an inconclusive call do not appear.
reportedMetric: activation (%)
The figure you give is taken to be in %; do not add the unit.

Sample answers from the record:
CNC(=O)c1ccccc1 :: -1.59
CC(=O)Nc1ccccc1C :: -4.6
CCC(C)O (stereo not given) :: 0.0998
Nc1nc(-c2ccccc2)cs1 :: 1.27
Cc1ccc(C#N)cc1 :: -8.98
Cc1cc(C2(c3cc(C)c(O)cc3C)OS(=O)(=O)c3ccccc32)c(C)cc1O :: 3.46
CCCC(C)CO (stereo not given) :: 0.0234
COc1cccc(N)c1 :: 1.73
C[C@@H]1O[C@@H](O[C@@H]2[C@@H](O)[C@H](OCCc3ccc(O)c(O)c3)O[C@H](CO[C@@H]3O[C@H](CO)[C@@H](O)[C@H](O)[C@H]3O)[C@H]2OC(=O)/C=C/c2ccc(O)c(O)c2)[C@H](O)[C@H](O)[C@H]1O :: 2.75
CC(C)Nc1ccccc1 :: -8.21

Give activation (Glucocorticoid receptor (Homo sapiens) (UniProt P04150)) of the following molecule: C=Cc1ccccn1
-3.05

Give activation (Glucocorticoid receptor (Homo sapiens) (UniProt P04150)) of the following molecule: Cc1c(N)cccc1N
-2.97

Give activation (Glucocorticoid receptor (Homo sapiens) (UniProt P04150)) of the following molecule: OC(CCl)CCl
14.2

Give activation (Glucocorticoid receptor (Homo sapiens) (UniProt P04150)) of the following molecule: CC(C=O)Cc1ccc(C(C)(C)C)cc1 (stereo not given)
-5.34

Give activation (Glucocorticoid receptor (Homo sapiens) (UniProt P04150)) of the following molecule: CC1(N)CCC(C(C)(C)N)CC1 (stereo not given)
7.57

----------
targetOrSystem: Thyroid hormone receptor beta (Homo sapiens)
methodSummary: qHTS assay for small molecule antagonists of thyroid hormone receptor beta signaling (AID 588547);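 also: cells stimulated with 0.4 nM T3 agonist during compound exposure; % is scaled to controls: 0 for no effect and ±100 for the full control effect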
conditions: TR-UAS-bla HEK293, beta-lactamase ratio, antagonist mode, 18 h
Results filed as inconclusive are left out.
reportedMetric: activity change % (negative = inhibition) (%)
The figure you give is taken to be in %; do not add the unit.

ON=C1CCCCC1 :: 8.44

Please look up its activity change % (negative = inhibition): Cc1ccc([N+](=O)[O-])c(N)c1
-0.142

Please look up its activity change % (negative = inhibition): CCCCOCCOCCOCCCC
3.11

Please look up its activity change % (negative = inhibition): C[C@@H]1CC2(OC[C@]3(C)O[C@H]23)O[C@H]2C[C@@]3(C)[C@@H]4CC[C@H]5C(C)(C)C(O[C@@H]6OC[C@@H](O)[C@H](O)[C@H]6O)CC[C@@]56C[C@@]46CC[C@]3(C)[C@@H]12 (some centres undefined)
4.18

Please look up its activity change % (negative = inhibition): C=CCn1c(=O)n(CC=C)c(=O)n(CC=C)c1=O
-0.231

Please look up its activity change % (negative = inhibition): Nc1cccc(O)c1
-7.53

Please look up its activity change % (negative = inhibition): CC/C=C/C#N
3.84

Please look up its activity change % (negative = inhibition): C/C=C(/C)C#N
15

Please look up its activity change % (negative = inhibition): CC(=O)Nc1ccccc1C
4.18

----------
methodSummary: qHTS assay for small molecule activators of the p53 signaling pathway (AID 651743); also: % of control where 0% means no effect
conditions: HCT-116 p53RE-bla, beta-lactamase FRET ratio, 16 h; hits give high values
Results filed as inconclusive are left out.
reportedMetric: activation (%)
The figure you give is taken to be in %; do not add the unit.

Sample answers from the record:
NC(=O)NC(N)=O :: -4.91
CCCCCCCN :: -0.0412
COc1cccc(N)c1 :: -3.72
Cc1cscn1 :: -1.86
CC(=O)OC(C)=O :: 1.52
C=Cc1ccccn1 :: -2.17
Cc1cc(C2(c3cc(C)c(O)cc3C)OS(=O)(=O)c3ccccc32)c(C)cc1O :: -5.82
COC(=O)CCC(=O)OC :: -2.9
COC(=O)c1ccccc1 :: 7.4
O=P(O)(OCc1ccccc1)OCc1ccccc1 :: -2.58

Please look up its activation: CCCCCCC=O
0.659

----------
Entries and their max response values follow.
methodSummary: qHTS assay for cell viability of HEK293 cells (AID 743288); also: % is scaled to controls: 0 for no effect and ±100 for the full control effect; nearly all actives have a fitted effect of over 50% in size
conditions: ATP luminescence (CellTiter-Glo), 18 h, hits give low values
Records with an inconclusive call do not appear.
The figure you give is taken to be in %; do not add the unit.

Sample answers from the record:
CCCCCCC(=O)O :: -7.36
FC(F)(F)c1ccccc1Cl :: 10.1
Nc1ccccc1S(=O)(=O)O :: -1.86

Please look up its max response: C=CCCCC
3.02

Please look up its max response: OC/C(Br)=C(\Br)CO
0.0424

----------
Entries and their max response values follow.
targetOrSystem: Retinoic acid receptor RXR-alpha (Homo sapiens)
methodSummary: qHTS assay for small molecule antagonists of retinoid X receptor alpha signaling (AID 588546);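 also: cells stimulated with 9-cis-retinoic acid as agonist; % is scaled to controls: 0 for no effect and ±100 for the full control effect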
conditions: HEK293T RXRa-UAS-bla, beta-lactamase ratio, antagonist mode
Source text: NIH Chemical Genomics Center [NCGC] U.S. Environmental Protection Agency [EPA] National Institutes of Environmental Health Sciences [NIEHS] National Toxicology Program [NTP] NCGC Assay Overview The Retinoid X receptor (RXR), a nuclear hormone receptor is expressed in liver, spleen, placenta, epidermis, central nervous system. […]
Results filed as inconclusive are left out.
The figure you give is taken to be in %; do not add the unit.

CCCCCCCCC/C=C/CC1CC(=O)OC1=O (centres undefined) :: 19.9
Cc1ccc(C)cc1 :: 34.4
c1ccc2c(c1)ccc1ncccc12 :: -11.7
COc1ccc(N)c(C)c1 :: 8.01

Give max response (Retinoic acid receptor RXR-alpha (Homo sapiens)) of the following molecule: O=[N+]([O-])c1cccc(Cl)c1
7.77

Give max response (Retinoic acid receptor RXR-alpha (Homo sapiens)) of the following molecule: CC(C)=CCl
7.55

Data credit: PubChem BioAssay (NCATS)
